Item-by-item account of pIC50
# Test system: UniProt:Q9NXA8
# Sequence (Q9NXA8 whole entry): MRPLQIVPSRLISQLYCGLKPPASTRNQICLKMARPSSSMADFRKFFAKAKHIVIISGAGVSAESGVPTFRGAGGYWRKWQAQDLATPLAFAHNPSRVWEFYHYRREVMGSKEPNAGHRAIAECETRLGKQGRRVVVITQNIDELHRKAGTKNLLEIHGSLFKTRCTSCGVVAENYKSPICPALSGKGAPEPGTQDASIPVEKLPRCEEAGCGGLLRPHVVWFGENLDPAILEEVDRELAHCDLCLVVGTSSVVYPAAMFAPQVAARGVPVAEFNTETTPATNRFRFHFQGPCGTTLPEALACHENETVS
pIC50: −log10 of the molar value.

[[record]]
molecule = "CCCCCCCCCCCCCC(=S)NCCCC[C@H](NC(=O)CCOCCOCCOCCOCCNc1cccc2c1C(=O)N(C1CCC(=O)NC1=O)C2=O)C(=O)Nc1ccccc1 (some centres not stated)"
recorded_measurement = "< 4.08"


Turning now to a further molecule:
Ask | Which pIC50 value belongs to "CCCCCCCCCCCCCC(=S)NCCCC[C@H](NC(=O)OCc1ccccc1)C(=O)Nc1ccccc1" ?
Reply | < 4.08
